- System: LOX IMVI melanoma
- assay-overview: NCI tumour cell line growth inhibition, 48 h
The following compounds are listed with their measured GI50 values.

compound	system	GI50
CC[C@H](C)[C@H]1NC(=O)[C@@H](N[C@](C)(O)[C@@H](N)CC(C)C)[C@@H](C)OC(=O)[C@H](Cc2ccc(OC)cc2)N(C)C(=O)[C@@H]2CCCN2C(=O)[C@H](CC(C)C)NC(=O)[C@@H](C)C(=O)[C@H](C(C)C)OC(=O)C[C@@H]1O	LOX IMVI melanoma	0.012 µM
CC(C)=CCC[C@H](C)[C@@H]1CC[C@]2(C)C3CC[C@]4(OC4(C)C)C(CCCO)[C@]3(C)CC[C@@]12C (some centres not stated)	LOX IMVI melanoma	0.18 µM
Cc1cc2c(cc1Cl)SC1=CC(=O)N(c3ccccc3)C1=NS2(=O)=O	LOX IMVI melanoma	26.2 µM
CC[C@@H](C(=O)[C@@H](C)[C@@H](O)[C@H](C)[C@@H]1O[C@@H]([C@@H](CC)C(=O)O)CC[C@@H]1C)C1O[C@]2(C=CC(=O)[C@]3(CC[C@@](C)([C@H]4CC[C@](O)(CC)[C@H](C)O4)O3)O2)[C@H](C)C[C@@H]1C (some centres not stated)	LOX IMVI melanoma	0.71 µM
CCOc1cccc(/C=N/NC(=O)c2ccc(Nc3ccnc(C(F)(F)F)c3)cc2)c1O	LOX IMVI melanoma	0.6 µM
COc1ccccc1OCC(=O)Nc1sc2c(c1C(N)=O)CCC2	LOX IMVI melanoma	> 100 µM
CC(=O)N1N=C2/C(=C/c3ccccc3)CC(C)CC2C1c1ccccc1 (configuration not stated)	LOX IMVI melanoma	13.9 µM

* * *

- Tested on: UO-31 renal
- assay-overview: NCI tumour cell line growth inhibition, 48 h
Examples of compounds with documented TGI follow.
assay-metric: TGI

> print(dat)
                                   compound  assay.metric     result
1               COC(=O)CCCN(C)c1n[nH]c(N)n1           TGI   > 100 µM
2  CCc1n[nH]c(=S)n1/N=C\c1ccc(-c2ccccc2Cl)o1           TGI   > 100 µM
3  O=C1/C(=C/C=C/c2ccccc2)N=C(c2ccccc2)N1C1Nc2cc3c(cc2S1)NC(N1C(=O)/C(=C/C=C/c2ccccc2)N=C1c1ccccc1)S3 (stereo not given)           TGI   > 100 µM
4  CCOc1cccc(/C=N/NC(=O)c2ccc(Nc3ccnc(C(F)(F)F)c3)cc2)c1O           TGI  > 25.7 µM
5  CCOC12OC3=C(CC1CC1=C(CCC1=O)O2)C(=O)CC3 (stereo not given)           TGI   > 100 µM

* * *

- Test system: SF-539 CNS
- assay-overview: NCI tumour cell line growth inhibition, 48 h
assay-metric: TGI

> print(dat)
                                   compound    result
1  COc1cc(O)c2c(O)c3c(c4c2c1[C@]1(C4)C(C)=CCCC1(C)C)[C@H](O)[C@@]1(O)CC(=O)C(C(N)=O)=C(O)[C@@]1(O)C3=O  0.965 µM
2  O=S(=O)(O)O.[NH-]C1CCCCC1[NH-].[Pt+2] (stereo not given)  > 100 µM
3    COC(=O)[C@@H]1CN(C(=O)c2ccccc2)C(=O)N1  > 100 µM
4     Oc1ccccc1-c1nn(CNc2cccc(Cl)c2)c(=S)o1  > 100 µM
5  CCCCON1C[C@@H](O)C(O)[C@@H](O)C1 (stereo not given in full)  > 100 µM
